Sourced from the supplement of paper PMC10126150

Test system: ATP;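 further: ATP exposure 15 min at 22 °C before imaging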
Assay: switch fluorescence ratio, 500 uM ATP over buffer (Cy3 cluster intensity, sum of 5 cycles each) (fold (ratio)); higher = stronger signal-on switching upon ATP binding; sequences stand for … in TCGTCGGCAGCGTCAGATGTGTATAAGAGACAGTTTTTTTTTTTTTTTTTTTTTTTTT…TC
Settings: aptamer strand: ATP DNA aptamer (quencher-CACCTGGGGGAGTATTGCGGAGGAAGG + anchor), 100 nM annealed; ATP concentration: 500 uM
Listed here: items and their measured switch fluorescence ratio.

Take a look at these entries with their results.
TACGTTTTTC	1
CAAGACGTTG	0.974
TGAAAAAAAA	0.971
AAAAGACGG	1
GATTCAGCGG	0.97

[ask] # get_value(readout= switch fluorescence ratio, system= ATP) for TTTTTCCAAC;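 further: ATP exposure 15 min at 22 °C before imaging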
[reply] 1.02

[ask] # get_value(readout= switch fluorescence ratio, system= ATP) for CGGCGTGTTT;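 further: ATP exposure 15 min at 22 °C before imaging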
[reply] 1.05

[ask] # get_value(readout= switch fluorescence ratio, system= ATP) for ACAGACAATG;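 further: ATP exposure 15 min at 22 °C before imaging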
[reply] 1.02

[ask] # get_value(readout= switch fluorescence ratio, system= ATP) for TGCGCCAACT;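 further: ATP exposure 15 min at 22 °C before imaging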
[reply] 1.06

[ask] # get_value(readout= switch fluorescence ratio, system= ATP) for TGGGGTATAG;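 further: ATP exposure 15 min at 22 °C before imaging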
[reply] 1.01

[ask] # get_value(readout= switch fluorescence ratio, system= ATP) for TGTACGGAGG;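 further: ATP exposure 15 min at 22 °C before imaging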
[reply] 1.04

[ask] # get_value(readout= switch fluorescence ratio, system= ATP) for GTACGAACTT;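 further: ATP exposure 15 min at 22 °C before imaging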
[reply] 1.32

[ask] # get_value(readout= switch fluorescence ratio, system= ATP) for AGGTTAGGGC;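 further: ATP exposure 15 min at 22 °C before imaging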
[reply] 0.984

[ask] # get_value(readout= switch fluorescence ratio, system= ATP) for TAAATACTCG;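 further: ATP exposure 15 min at 22 °C before imaging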
[reply] 1.25

[ask] # get_value(readout= switch fluorescence ratio, system= ATP) for GGGTTAGGGA;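 further: ATP exposure 15 min at 22 °C before imaging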
[reply] 0.996

[ask] # get_value(readout= switch fluorescence ratio, system= ATP) for GAGGGTAATA;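 further: ATP exposure 15 min at 22 °C before imaging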
[reply] 1.01

[ask] # get_value(readout= switch fluorescence ratio, system= ATP) for TGCATTTATG;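 further: ATP exposure 15 min at 22 °C before imaging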
[reply] 1.02

[ask] # get_value(readout= switch fluorescence ratio, system= ATP) for TCGTAATCGC;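 further: ATP exposure 15 min at 22 °C before imaging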
[reply] 1.41

[ask] # get_value(readout= switch fluorescence ratio, system= ATP) for CATAAATGTT;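 further: ATP exposure 15 min at 22 °C before imaging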
[reply] 1.02

[ask] # get_value(readout= switch fluorescence ratio, system= ATP) for TATGGCCCGG;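 further: ATP exposure 15 min at 22 °C before imaging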
[reply] 1.02

[ask] # get_value(readout= switch fluorescence ratio, system= ATP) for GTTAATTGGG;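 further: ATP exposure 15 min at 22 °C before imaging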
[reply] 0.953

[ask] # get_value(readout= switch fluorescence ratio, system= ATP) for GGGAGATATT;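 further: ATP exposure 15 min at 22 °C before imaging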
[reply] 0.985

[ask] # get_value(readout= switch fluorescence ratio, system= ATP) for TTTATAAGGA;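 further: ATP exposure 15 min at 22 °C before imaging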
[reply] 0.997

[ask] # get_value(readout= switch fluorescence ratio, system= ATP) for GAATTTTGGG;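 further: ATP exposure 15 min at 22 °C before imaging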
[reply] 1

[ask] # get_value(readout= switch fluorescence ratio, system= ATP) for TTTAGAAGGT;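 further: ATP exposure 15 min at 22 °C before imaging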
[reply] 0.995

====

System: ATP;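 further: ATP exposure 15 min at 22 °C before imaging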
Assay: switch fluorescence ratio, 500 uM ATP over buffer (Cy3 cluster intensity, sum of 5 cycles each) (fold (ratio)); higher = stronger signal-on switching upon ATP binding; sequences stand for … in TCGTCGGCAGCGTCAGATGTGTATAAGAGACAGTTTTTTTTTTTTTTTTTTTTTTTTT…TC
Conditions: aptamer strand: ATP DNA aptamer (quencher-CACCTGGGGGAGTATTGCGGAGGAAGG + anchor), 100 nM annealed; ATP concentration: 500 uM
endpoint_name: switch fluorescence ratio
I only need the number, thanks.

Take a look at these entries with their results.
GATTTCCCCG	1.18
GGAGGGCAAA	1.01

[ask] switch fluorescence ratio lookup needed for TTTTGGATCG , thanks.
[reply] 1

[ask] switch fluorescence ratio lookup needed for GGGGTTTTGG , thanks.
[reply] 0.995

[ask] switch fluorescence ratio lookup needed for TTTGTTCCAG , thanks.
[reply] 1.01

[ask] switch fluorescence ratio lookup needed for ATTAGGATTG , thanks.
[reply] 1

[ask] switch fluorescence ratio lookup needed for AGATATACGG , thanks.
[reply] 1.02

[ask] switch fluorescence ratio lookup needed for TTAAGACGGG , thanks.
[reply] 1

[ask] switch fluorescence ratio lookup needed for CGGGTGGGGC , thanks.
[reply] 1.02

[ask] switch fluorescence ratio lookup needed for AAATTGATGG , thanks.
[reply] 1

[ask] switch fluorescence ratio lookup needed for CGTAAGGGTT , thanks.
[reply] 1.01

[ask] switch fluorescence ratio lookup needed for GGGTTTTGCG , thanks.
[reply] 0.973

[ask] switch fluorescence ratio lookup needed for CCGGACGGAG , thanks.
[reply] 1.04

[ask] switch fluorescence ratio lookup needed for GGGCATATAG , thanks.
[reply] 1.61

[ask] switch fluorescence ratio lookup needed for GCCCATAGAC , thanks.
[reply] 1.12

[ask] switch fluorescence ratio lookup needed for AAGGTATATA , thanks.
[reply] 0.994

[ask] switch fluorescence ratio lookup needed for CCGGGGAGTG , thanks.
[reply] 1.14

[ask] switch fluorescence ratio lookup needed for GAGGGGGGTC , thanks.
[reply] 1.04

====

Listed here: items and their measured switch fluorescence ratio.
Test system: ATP;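 further: ATP exposure 15 min at 22 °C before imaging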
Experiment: switch fluorescence ratio, 500 uM ATP over buffer (Cy3 cluster intensity, sum of 5 cycles each) (fold (ratio)); higher = stronger signal-on switching upon ATP binding; sequences stand for … in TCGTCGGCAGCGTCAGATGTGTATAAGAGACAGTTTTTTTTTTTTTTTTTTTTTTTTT…TC
Details: aptamer strand: ATP DNA aptamer (quencher-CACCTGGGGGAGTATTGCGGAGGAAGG + anchor), 100 nM annealed; ATP concentration: 500 uM
I only need the number, thanks.

TTTGTATTGT	1.02
TTAAGTGTAG	1

[ask] switch fluorescence ratio lookup needed for TTGCTCTGTT , thanks.
[reply] 0.988

====

Listed here: items and their measured switch fluorescence ratio.
Test system: ATP;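 further: ATP exposure 15 min at 22 °C before imaging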
Experiment: switch fluorescence ratio, 500 uM ATP over buffer (Cy3 cluster intensity, sum of 5 cycles each) (fold (ratio)); higher = stronger signal-on switching upon ATP binding; sequences stand for … in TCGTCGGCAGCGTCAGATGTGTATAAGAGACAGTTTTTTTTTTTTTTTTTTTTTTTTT…TC
Details: aptamer strand: ATP DNA aptamer (quencher-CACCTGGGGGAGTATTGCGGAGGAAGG + anchor), 100 nM annealed; ATP concentration: 500 uM

TATAAGTTCC	1.07

[ask] # get_value(readout= switch fluorescence ratio, system= ATP) for GCAGCCTGTT;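 further: ATP exposure 15 min at 22 °C before imaging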
[reply] 0.994

[ask] # get_value(readout= switch fluorescence ratio, system= ATP) for AAATTTTGGC;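 further: ATP exposure 15 min at 22 °C before imaging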
[reply] 1.1

[ask] # get_value(readout= switch fluorescence ratio, system= ATP) for ATTTGTTAAG;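 further: ATP exposure 15 min at 22 °C before imaging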
[reply] 1

[ask] # get_value(readout= switch fluorescence ratio, system= ATP) for ACGATCGGGC;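 further: ATP exposure 15 min at 22 °C before imaging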
[reply] 1.06

====

Tested on: ATP;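 further: ATP exposure 15 min at 22 °C before imaging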
Assay: switch fluorescence ratio, 500 uM ATP over buffer (Cy3 cluster intensity, sum of 5 cycles each) (fold (ratio)); higher = stronger signal-on switching upon ATP binding; sequences stand for … in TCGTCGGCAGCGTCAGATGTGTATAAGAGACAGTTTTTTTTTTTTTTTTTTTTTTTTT…TC
Settings: aptamer strand: ATP DNA aptamer (quencher-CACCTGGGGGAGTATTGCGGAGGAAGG + anchor), 100 nM annealed; ATP concentration: 500 uM
endpoint_name: switch fluorescence ratio
I only need the number, thanks.

TTATGGGCGG	1.02
GTTGGTTCGT	1.02
CCGCTCGAAT	3.36

[ask] switch fluorescence ratio lookup needed for GTTATGACTC , thanks.
[reply] 1

[ask] switch fluorescence ratio lookup needed for CATGGTTTTG , thanks.
[reply] 1

[ask] switch fluorescence ratio lookup needed for TGAAAGCACA , thanks.
[reply] 1.11

[ask] switch fluorescence ratio lookup needed for TCCCATATAT , thanks.
[reply] 1.09

[ask] switch fluorescence ratio lookup needed for TTTTTGACTG , thanks.
[reply] 0.994

[ask] switch fluorescence ratio lookup needed for TTGCTAAAGC , thanks.
[reply] 1.04

[ask] switch fluorescence ratio lookup needed for GTTCTGTTGG , thanks.
[reply] 0.995

[ask] switch fluorescence ratio lookup needed for GAAGTGAGCG , thanks.
[reply] 1.03

====

Test system: ATP;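 further: ATP exposure 15 min at 22 °C before imaging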
Test: switch fluorescence ratio, 500 uM ATP over buffer (Cy3 cluster intensity, sum of 5 cycles each) (fold (ratio)); higher = stronger signal-on switching upon ATP binding; sequences stand for … in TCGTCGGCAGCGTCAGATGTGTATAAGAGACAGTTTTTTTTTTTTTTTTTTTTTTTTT…TC
Conditions: aptamer strand: ATP DNA aptamer (quencher-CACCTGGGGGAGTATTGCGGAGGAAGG + anchor), 100 nM annealed; ATP concentration: 500 uM
Hi, to clarify the labels: true covers switch fluorescence ratio from 1 upward, false covers anything below 1.

Study these solved cases before continuing.
GTGAGATGGA	false
GGCGACTAAA	true

[ask] Test whether the sequence CCGGGGGTTG records switch fluorescence ratio of 1 or higher.
[reply] true

[ask] Test whether the sequence TTCAGGGTCC records switch fluorescence ratio of 1 or higher.
[reply] true

[ask] Test whether the sequence TAGTTTTGAT records switch fluorescence ratio of 1 or higher.
[reply] false
